B1: PLEKHM1‐LIR WT peptide (EDEWVNVQY), biotinylated [modified: biotin; biotin] [not stated] / 6xHis‐tagged LC3B [human] (parent complex)
chain 1: EDEWVNVQY
chain 2: not shown

# Variants of: B1
# Protocol summary: peptide array (biotinylated LIR peptide, 6xHis-mATG8, absorbance); n = 3; read off a plot
Known percent of parent of a selection of variants
Endpoint: percent of parent

chain 1 V7I | ~200 % Mutant LIR/WT
chain 1 W4A, chain 1 V7A | ~8 % Mutant LIR/WT
chain 1 W4Y | ~10 % Mutant LIR/WT
chain 1 W4F | ~8 % Mutant LIR/WT
chain 1 V7L | ~250 % Mutant LIR/WT

Cited source: paper PMC5538626
